target: GSK3β kinase (Homo sapiens (Human), UniProt P49841); assay: GSK3β kinase assay (Ser/Thr 09 peptide Z-lyte, FRET); conditions: method text calls the value IC50
Sequence (P49841 whole entry): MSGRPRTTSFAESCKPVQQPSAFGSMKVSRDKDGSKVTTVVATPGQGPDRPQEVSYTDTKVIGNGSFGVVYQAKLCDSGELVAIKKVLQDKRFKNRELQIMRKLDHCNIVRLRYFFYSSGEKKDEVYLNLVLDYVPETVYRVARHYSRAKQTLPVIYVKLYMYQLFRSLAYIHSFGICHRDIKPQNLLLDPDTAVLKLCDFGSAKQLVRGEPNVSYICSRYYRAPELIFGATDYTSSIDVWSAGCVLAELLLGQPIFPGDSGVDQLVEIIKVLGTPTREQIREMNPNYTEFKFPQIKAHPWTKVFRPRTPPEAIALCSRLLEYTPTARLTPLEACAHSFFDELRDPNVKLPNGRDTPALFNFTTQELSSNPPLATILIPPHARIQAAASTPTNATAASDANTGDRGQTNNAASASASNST
Output True for records whose EC50 is lower than 500 nM, False for records at or above 500 nM.

CN1CC2CCC(C1)N2C(=O)Nc1cc2cc(-c3cnn(C)c3)ccc2cn1    False
Cn1cc(-c2ccc3cnc(NC(=O)[C@H]4CC[C@H](N5CCOCC5)CC4)cc3c2)nn1    True
Cc1nnc(-c2ccc3cnc(NC(=O)C4(F)CCN(C)CC4)cc3c2)s1    False
[2H]C1([2H])OC([2H])([2H])C([2H])([2H])N(C(=O)Nc2cc3cc(-c4cnc(C)n4C)ccc3cn2)C1([2H])[2H]    False
Cc1nnc(-c2ccc3cnc(NC(=O)N(C)C4CCN(C)CC4)cc3c2)s1    True
[2H]C([2H])(C(=O)Nc1cc2cc(-c3cncn3C)ccc2cn1)c1ccc(F)cc1    True

// query # TODO verify EC50 < 500 nM strictly for this compound: `COC1CCN(CC(=O)Nc2cc3cc(-c4cnc(C)o4)ccc3cn2)CC1`
// result True

// query For this compound, is EC50 lower than 500 nM? `Cc1nnc(-c2ccc3cnc(NC(=O)[C@H]4CC[C@H](N(C)C)CC4)cc3c2)s1`
// result True

----------
target: GSK3β kinase (Homo sapiens (Human), UniProt P49841); assay: GSK3β kinase assay (Ser/Thr 09 peptide Z-lyte, FRET); settings: method text calls the value IC50;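 note: Coumarin/fluorescein emission ratio converted to percent phosphorylation against unphosphorylated (0%) and phosphorylated (100%) controls, 1 h compound incubation at room temperature, 11-point threefold dilutions from 10 µM, run in duplicate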
propertyMeasured: log10 EC50 (log10 of the value in nM)
The figures below represent log10 of EC50, where EC50 is stated in nM.

// field: log10 EC50; key: `COC1CCN(CC(=O)Nc2cc3cc(-c4cn(C)nn4)ccc3cn2)CC1` ; value = 0.78

`[2H]c1c([2H])c(C(=O)Nc2cc3cc(-c4cncn4C)ccc3cn2)c([2H])c([2H])c1Cl` yielded log10 EC50 of 2.94

For reference, reported log10 EC50 for `[2H]c1c([2H])c(C(=O)Nc2cc3cc(-c4cncn4C)ccc3cn2)c([2H])c([2H])c1C` stands at 2.93

Consider `[2H]c1c(NC(=O)CN2CCOCC2)ncc2ccc(-c3nnc(C)s3)cc12` . Its measured log10 EC50 is 1.34

log10 EC50 measured on `Cc1nnc(-c2ccc3cnc(NC(=O)[C@H]4CC[C@H](N)CC4)cc3c2)s1` = 1.54

Reported log10 EC50 ( `Cc1cn2c(n1)CN(C(=O)Nc1cc3cc(-c4nnc(C)s4)ccc3cn1)CC2` ) = 0.85

Notebook: `Cc1ncc(-c2ccc3cnc(NC(=O)N4CCOCC4)cc3c2)n1C` , log10 EC50 read as 3.10

log10 EC50 in this record for `Cc1nnc(-c2cc(F)c3cnc(NC(=O)[C@H]4CC[C@H](N5CCOCC5)CC4)cc3c2)s1` : 1.20

Recorded result, `Cc1nnc(-c2ccc3cnc(NC(=O)N4CCC(NC(CF)CF)CC4)cc3c2)s1` , log10 EC50: 1.91

Field log10 EC50 (entry `[2H]C([2H])([2H])[N+]1([O-])CCN(c2cc(C(=O)Nc3cc4cc(-c5cn(C)nn5)ccc4cn3)ccn2)CC1` ) reads 3.08

log10 EC50 for `Cn1cc(-c2ccc3cnc(NC(=O)[C@H]4CC[C@H](NCCF)CC4)cc3c2)cn1` is 1.94

response.value for `Cc1nnc(-c2ccc3cnc(NC(=O)N4CCC(N(C)CC(F)F)CC4)cc3c2)s1` (field: log10 EC50) = 2.32

Data point: `C[C@H]1CN(C)CCN1C(=O)Nc1cc2cc(-c3cnn(C)c3)ccc2cn1` ; log10 EC50 = 3.67
